Overview of recorded t1/2 for various molecules
# Target Or System: β2AR (Homo sapiens)
# Test Method Notes: Ligand-induced DMR signal, RWG biosensor, quiescent A431 cells
# Format: cell-based
# Design: A431 cells endogenously express large numbers of the β2AR; endogenous in cells; host or cells: A431 (human epidermoid carcinoma), quiescent
# Experimental Parameters: P-DMR event, single phase exponential association fit
Assay Readout: t1/2 (min)

INSERT INTO results (molecule, target_or_system, measurement_units, recorded_number) VALUES
  ('NCCc1ccc(O)c(O)c1', 'β2AR (Homo sapiens)', 'min', 8),
  ('NC[C@H](O)c1ccc(O)c(O)c1 [norepinephrine]', 'β2AR (Homo sapiens)', 'min', 9.32),
  ('CNC[C@H](O)c1ccc(O)c(O)c1 [epinephrine]', 'β2AR (Homo sapiens)', 'min', 8.68),
  ('O=C(NCCNCC(O)COc1ccc(O)cc1)N1CCOCC1 (stereo not drawn)', 'β2AR (Homo sapiens)', 'min', 16.2),
  ('CC(C)NCC(O)COc1cccc2[nH]ccc12 (stereo not drawn)', 'β2AR (Homo sapiens)', 'min', 8.6),
  ('Oc1ccccc1O', 'β2AR (Homo sapiens)', 'min', 4.82);

* * *

# Target Or System: β2AR (Homo sapiens, UniProt P07550)
# Sequence (P07550 whole entry): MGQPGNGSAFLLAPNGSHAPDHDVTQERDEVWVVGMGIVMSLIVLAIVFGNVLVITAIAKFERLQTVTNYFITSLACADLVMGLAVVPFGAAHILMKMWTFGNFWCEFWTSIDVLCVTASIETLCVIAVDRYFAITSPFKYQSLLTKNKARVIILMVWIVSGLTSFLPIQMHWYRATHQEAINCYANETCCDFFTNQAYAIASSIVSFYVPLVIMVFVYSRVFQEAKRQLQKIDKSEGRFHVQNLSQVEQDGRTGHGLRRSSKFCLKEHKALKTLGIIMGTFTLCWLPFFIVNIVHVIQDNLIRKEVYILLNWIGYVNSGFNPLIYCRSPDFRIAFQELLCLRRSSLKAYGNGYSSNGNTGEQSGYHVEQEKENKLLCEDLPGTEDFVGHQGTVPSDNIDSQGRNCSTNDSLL
# Test Method Notes: Ligand-induced DMR signal, RWG biosensor, quiescent A431 cells
# Experimental Parameters: DMR response at assay time of 50 min
compounds and their reported EC50
Assay Readout: EC50 (µM)

INSERT INTO results (compound, recorded_number) VALUES
  ('Oc1ccccc1O [catechol]', 501),
  ('CNCC(O)c1ccccc1 (centres unmarked) [halostachine]', 23.4);

* * *

# Target Or System: β2AR (Homo sapiens, UniProt P07550)
# Test Method Notes: Ligand-induced DMR signal, RWG biosensor, quiescent A431 cells
# Assay type: cell-based
# Design: A431 cells endogenously express large numbers of the β2AR; endogenous in cells; host or cells: A431 (human epidermoid carcinoma), quiescent
# Experimental Parameters: amplitude of P-DMR event
# Procedure: Cell culture—Human epidermoid carcinoma A431 cells (American Type Cell Culture) were grown in Dulbecco's modified Eagle's medium (DMEM) supplemented with 10% fetal bovine serum (FBS), 4.5 g/liter glucose, 2 mM glutamine, and antibiotics. […] For kinetic assays, the cells were washed with HBSS (Hanks Balanced Salt Solution with 20 mM HEPES) buffer. After 1 hour incubation within the detection system, the sensor plate was scanned and a baseline response was recorded. […]
Measured P-DMR (pm) by item
Assay Readout: P-DMR (pm)

INSERT INTO results (compound, recorded_number) VALUES
  ('NC[C@H](O)c1ccc(O)c(O)c1 [norepinephrine]', 209),
  ('O=C(NCCNCC(O)COc1ccc(O)cc1)N1CCOCC1 (stereo not drawn)', 75),
  ('NCCc1ccc(O)c(O)c1', 214),
  ('CNC[C@H](O)c1ccc(O)c(O)c1 [epinephrine]', 232),
  ('CC(C)NCC(O)COc1cccc2[nH]ccc12 (stereo not drawn)', 142),
  ('Oc1ccccc1O', 152);

* * *

Measured maximal amplitude of the P-DMR event, normalized to the epinephrine response accompanies every entry in the list below.
# Target Or System: UniProt:P07550
# Test Method Notes: Ligand-induced DMR signal, RWG biosensor, quiescent A431 cells
# Type: cell-based
# Set-up: A431 cells endogenously express large numbers of the β2AR; endogenous in cells; host or cells: A431 (human epidermoid carcinoma), quiescent
# Experimental Parameters: n=16
Assay Readout: maximal amplitude of the P-DMR event, normalized to the epinephrine response (%)

INSERT INTO measurements (compound, target_or_system, measurement_units, recorded_number) VALUES
  ('CNC[C@H](O)c1ccc(O)c(O)c1 [epinephrine]', 'UniProt:P07550', '%', 100),
  ('CC(C)NCC(O)COc1cccc2[nH]ccc12 (stereo not shown) [pindolol]', 'UniProt:P07550', '%', 61),
  ('Oc1ccccc1O [catechol]', 'UniProt:P07550', '%', 66),
  ('NC[C@H](O)c1ccc(O)c(O)c1 [norepinephrine]', 'UniProt:P07550', '%', 91);

* * *

# Target Or System: β2AR (Homo sapiens, UniProt P07550)
# Test Method Notes: Ligand-induced DMR signal, RWG biosensor, quiescent A431 cells
# Type: cell-based
# Set-up: A431 cells endogenously express large numbers of the β2AR; endogenous in cells; host or cells: A431 (human epidermoid carcinoma), quiescent
# Experimental Parameters: time for the P-DMR event to occur
Assay Readout: transition time (τ in seconds)

INSERT INTO measurements (compound, assay_readout, measurement_units, recorded_number) VALUES
  ('NCCc1ccc(O)c(O)c1', 'transition time (τ in seconds)', 's', 252),
  ('Oc1ccccc1O', 'transition time (τ in seconds)', 's', 130),
  ('O=C(NCCNCC(O)COc1ccc(O)cc1)N1CCOCC1 (stereo not drawn)', 'transition time (τ in seconds)', 's', 260),
  ('CNC[C@H](O)c1ccc(O)c(O)c1 [epinephrine]', 'transition time (τ in seconds)', 's', 132),
  ('CC(C)NCC(O)COc1cccc2[nH]ccc12 (stereo not drawn)', 'transition time (τ in seconds)', 's', 250),
  ('NC[C@H](O)c1ccc(O)c(O)c1 [norepinephrine]', 'transition time (τ in seconds)', 's', 180);

* * *

N-DMR (pm) values for the molecules below.
# Target Or System: β2AR (Homo sapiens, UniProt P07550)
# Test Method Notes: Ligand-induced DMR signal, RWG biosensor, quiescent A431 cells
# Assay type: cell-based
# Set-up: A431 cells endogenously express large numbers of the β2AR; endogenous in cells; host or cells: A431 (human epidermoid carcinoma), quiescent
# Experimental Parameters: amplitude of N-DMR event
Assay Readout: N-DMR (pm)

INSERT INTO measurements (molecule, assay_readout, recorded_number) VALUES
  ('CC(C)NCC(O)COc1cccc2[nH]ccc12 (stereo not drawn)', 'N-DMR (pm)', 0),
  ('O=C(NCCNCC(O)COc1ccc(O)cc1)N1CCOCC1 (stereo not drawn)', 'N-DMR (pm)', 0),
  ('Oc1ccccc1O', 'N-DMR (pm)', 0),
  ('NC[C@H](O)c1ccc(O)c(O)c1 [norepinephrine]', 'N-DMR (pm)', 29),
  ('CNC[C@H](O)c1ccc(O)c(O)c1 [epinephrine]', 'N-DMR (pm)', 37),
  ('NCCc1ccc(O)c(O)c1', 'N-DMR (pm)', 31);

* * *

# Target Or System: UniProt:P07550
# Test Method Notes: Ligand-induced DMR signal, RWG biosensor, quiescent A431 cells
# Type: cell-based
# Parameters: A431 cells endogenously express large numbers of the β2AR; endogenous in cells; host or cells: A431 (human epidermoid carcinoma), quiescent
# Experimental Parameters: saturating concentration, quiescent A431 cells
Assay Readout: type of DMR signal induced by the ligand alone

INSERT INTO measurements (compound, result) VALUES
  ('NCCc1ccccc1 [phenylethylamine]', 'complicated DMR signal'),
  ('CNC[C@H](O)c1ccc(O)c(O)c1 [epinephrine]', 'biphasic response'),
  ('NC[C@H](O)c1ccc(O)c(O)c1 [norepinephrine]', 'biphasic response'),
  ('NCCc1ccc(O)c(O)c1 [dopamine]', 'biphasic response'),
  ('NCCc1ccc(O)cc1 [tyramine]', 'complicated DMR signal');
